koff for assorted binders
System Name: T1, human ventricular myosin light chain 1, GlySer(His)6 tag (human, UniProt P08590 1-195, limits assumed)
T1 construct: also called human vMLC-1; vMLC1-6xHIS
T1 sequence (P08590 other isoform, or with tags, fused parts or gaps limits assumed): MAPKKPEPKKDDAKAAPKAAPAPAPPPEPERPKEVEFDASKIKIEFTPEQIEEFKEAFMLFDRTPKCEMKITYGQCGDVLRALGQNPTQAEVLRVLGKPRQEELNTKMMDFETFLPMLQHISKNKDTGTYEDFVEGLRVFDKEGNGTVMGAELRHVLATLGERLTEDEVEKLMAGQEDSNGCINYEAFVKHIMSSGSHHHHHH
Assay Protocol: BIAcore, vMLC-1 immobilised
Just the number plus its unit, please.

binder="humanised 39-15 mAb 4-1:1-46 (antibody, human IgG1, V domains shown, human IgG1 kappa) VH: QVQLVQSGAEVKKPGASVKVSCKASGYTFTTYWIHWVRQAPGQGLEWMGAIYPGDGDTRYTQNFKDRVTMTRDTSTSTVYMELSSLRSEDTAVYYCAREGTPPFTTATFAMAYWGQGTLVTVSS VL: DIVMTQSPDSLAVSLGERATINCKSSQSLLYSRTRKNYLAWYQQKPGQPPKLLIYWASTRQSGVPDRFSGSGSGTDFTLTISSLQAEDVAVYYCKQSYNLFTFGQGTKLEIKR" reported="1.63e-05 s⁻¹"
binder="humanised 39-15 mAb 4-1:1-8 (antibody, V domains shown) VH: QVQLVQSGAEVKKPGASVKVSCKASGYTFTTYWIHWVRQATGQGLEWMGAIYPGDGDTRYTQNFKDRVTMTRNTSISTAYMELSSLRSEDTAVYYCAREGTPPFTTATFAMAYWGQGTLVTVSS VL: DIVMTQSPDSLAVSLGERATINCKSSQSLLYSRTRKNYLAWYQQKPGQPPKLLIYWASTRQSGVPDRFSGSGSGTDFTLTISSLQAEDVAVYYCKQSYNLFTFGQGTKLEIKR" reported="1.87e-05 s⁻¹"
binder="humanised 39-15 mAb 4-1:5-51 (antibody, human IgG1, kappa, V domains shown, human IgG1 kappa) VH: EVQLVQSGAEVKKPGESLKISCKGSGYSFTTYWIHWVRQMPGKGLEWMGAIYPGDGDTRYTQNFKDQVTISADKSISTAYLQWSSLKASDTAMYYCAREGTPPFTTATFAMAYWGQGTLVTVSS VL: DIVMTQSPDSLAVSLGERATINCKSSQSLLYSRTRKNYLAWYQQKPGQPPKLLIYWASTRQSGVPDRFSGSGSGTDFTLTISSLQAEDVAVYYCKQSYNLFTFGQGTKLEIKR" reported="2.65e-06 s⁻¹"
binder="humanised 39-15 mAb 1-39:1-46 (antibody, V domains shown) VH: QVQLVQSGAEVKKPGASVKVSCKASGYTFTTYWIHWVRQAPGQGLEWMGAIYPGDGDTRYTQNFKDRVTMTRDTSTSTVYMELSSLRSEDTAVYYCAREGTPPFTTATFAMAYWGQGTLVTVSS VL: DIQMTQSPSSLSASVGDRVTITCKSSQSLLYSRTRKNYLAWYQQKPGKAPKLLIYWASTRQSGVPSRFSGSGSGTDFTLTISSLQPEDFATYYCKQSYNLFTFGQGTKLEIKR" reported="3.41e-05 s⁻¹"
binder="humanised 39-15 mAb 1-39:1-3 (antibody, V domains shown) VH: QVQLVQSGAEVKKPGASVKVSCKASGYTFTTYWIHWVRQAPGQRLEWMGAIYPGDGDTRYTQNFKDRVTITRDTSASTAYMELSSLRSEDMAVYYCAREGTPPFTTATFAMAYWGQGTLVTVSS VL: DIQMTQSPSSLSASVGDRVTITCKSSQSLLYSRTRKNYLAWYQQKPGKAPKLLIYWASTRQSGVPSRFSGSGSGTDFTLTISSLQPEDFATYYCKQSYNLFTFGQGTKLEIKR" reported="2.17e-05 s⁻¹"

With those in mind, consider the next binder.
Q: Data request, read-out koff, for humanised 39-15 mAb 4-1:1-3 (antibody, human IgG1, kappa, V domains shown, human IgG1 kappa) VH: QVQLVQSGAEVKKPGASVKVSCKASGYTFTTYWIHWVRQAPGQRLEWMGAIYPGDGDTRYTQNFKDRVTITRDTSASTAYMELSSLRSEDMAVYYCAREGTPPFTTATFAMAYWGQGTLVTVSS VL: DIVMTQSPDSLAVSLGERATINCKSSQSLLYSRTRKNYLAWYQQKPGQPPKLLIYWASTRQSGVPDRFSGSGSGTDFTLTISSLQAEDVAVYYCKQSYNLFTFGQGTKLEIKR
A: 1.52e-05 s⁻¹

meta.source: patent US20120253017A1
